Measured values drawn from the RNAGym collection of RNA variant scans (doi:10.1038/s41586-018-0170-7) for this set.

B1: tRNA (parent)
chain: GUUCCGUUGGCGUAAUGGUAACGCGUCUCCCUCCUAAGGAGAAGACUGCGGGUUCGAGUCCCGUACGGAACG

Variants of: B1
assay details: yeast fitness, log relative to wild type (ln ratio); higher = fitter; tRNA-Arg(CCU), competitive growth, 37 C, 1 M NaCl
Given measured yeast fitness (ln), output Satisfied if it is greater than or equal to -0.2 and Not satisfied if not.

sequence entry	label value
ACUCCGUUGGCGUAAUGGUAACGCGUCUCCCUCCUAAGGAGAAGAUUGCGGGUUCGAGUCCCGUACGGAAUG [G1A U2C C46U C71U]	Satisfied

Q: Answer whether yeast fitness (ln) of AUUCCAUUGGCGUAAUGGUAACGCGUUUCCCUCCUAAGGAGACGAUUGCGGGUUCGAGUCCCGUAUGGGUUG [G1A G6A C27U A43C C46U C66U A69G A70U C71U] is greater than or equal to -0.2.
A: Not satisfied

Q: For this variant, is measured yeast fitness (ln) -0.2 or higher? GUUCCUUUGGCGUAAUGGUAACGCGUCUCCCUCCUAAGGAGAAGACUGCGGGUUCGAGUCCCGUAAGGGGCG [G6U C66A A69G A70G]
A: Satisfied

Q: Dear colleague, could you confirm whether AUUCCGUUGGCGUAAUGGUAACGCGUUUCCCUCCUAAGGAGACGACUGCGGGUUCGAGUCCCGUACGGAUUG [G1A C27U A43C A70U C71U] has yeast fitness (ln) at or above -0.2?
A: Not satisfied

Q: Is yeast fitness (ln) for GGUCCGUUGGCGUAAUGGUAACGCGUUUCCCUCCUAAGGAGAAGAUUGCGGGUUCGAGUCCCGUAUGGAGCG [U2G C27U C46U C66U A70G] at or above -0.2?
A: Satisfied
